Experimental System: CV S-protein construct 6 trimer TP31001F (SARS-CoV-2, UniProt P0DTC2 14-1208)
Method Notes: SPR
Measured Endpoint: pKd
The meaning of pKd here: minus log10 of the concentration in molar units.

variant 5-42 (Fc fusion) VHH: EVQLVESGGGLVQPGGSLRLSCAASGFTPDDYAMGWFRQAPGKEREFVASIGYSGRSNSYNYYADSVKGRFTISADNSKNTAYLQMNSLKPEDTAVYYCAIAHGSSTYNWGQGTLVTVSS ... 9.22

Then this binder:
Please report pKd for the following binder: variant 6-45 (Fc fusion) VHH: EVQLVESGGGLVQPGGSLRLSCAASGNMFSINAMGWFRQAPGKEREFVTLISWSSGRTSYADSVKGRFTISADNSKNTAYLQMNSLKPEDTAVYYCASLGYCSGGSCFDYWGQGTLVTVSS 8.89
